Quick reference for IC50 among some compounds
target: Recombinant human IDO1 (rhIDO1) (Homo sapiens (Human)); experiment: Enzymatic assay for IDO1 activity; type: biochemical; conditions: rhIDO1 9 nM, 80 μM TRP, 37° C. 30 min
Sequence (P14902 whole entry): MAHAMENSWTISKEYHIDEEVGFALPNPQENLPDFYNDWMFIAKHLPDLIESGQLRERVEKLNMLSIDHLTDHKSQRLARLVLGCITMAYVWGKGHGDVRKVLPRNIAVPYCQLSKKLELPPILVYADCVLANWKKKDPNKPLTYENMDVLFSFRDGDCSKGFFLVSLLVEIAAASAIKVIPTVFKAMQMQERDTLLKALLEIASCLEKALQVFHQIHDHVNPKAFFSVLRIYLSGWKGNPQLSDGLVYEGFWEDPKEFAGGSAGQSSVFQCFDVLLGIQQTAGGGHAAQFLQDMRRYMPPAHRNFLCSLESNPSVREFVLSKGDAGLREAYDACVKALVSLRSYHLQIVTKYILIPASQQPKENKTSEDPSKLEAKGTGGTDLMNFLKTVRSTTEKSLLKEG

> print(dat)
                                   compound  experimental.endpoint  test.value
1  Cc1nc2onc(NC(=O)Oc3ccccc3)c2c(C)c1Cl [Compound 4]                   IC50  1 to 10 µM
2  CC(=O)Nc1noc2nc(C)c(Cl)c(C)c12 [Compound 20]                   IC50    > 100 µM
3  Cc1nc2onc(NC(=O)Cc3ccccc3)c2c(C)c1Cl [Compound 18]                   IC50    > 100 µM
4  COc1cccc(NC(=O)Nc2noc3nc(C)c(Cl)c(C)c23)c1 [Compound 12]                   IC50    > 100 µM

Then this compound:
(Q) I am curious: what IC50 value has been reported for Cc1nc2onc(NC(=O)Nc3ccc(C(F)(F)F)cc3)c2c(C)c1Cl [Compound 16] ?
(A) > 100 µM
